Cited source: patent US8410107B2

Measured on: human CB1 receptor (Homo sapiens)
Construct: expressed in transfected cells; host or cells: human embryonic kidney (HEK) cells, Semliki Forest Virus system, membrane preparations
Experimental protocol: CB1 receptor affinity ([3H]-CP-55,940 displacement, HEK cell membranes)
Format: binding
Protocol conditions: displacement of radioligand [3H]-CP-55,940
Description: The affinity of the compounds of the invention for cannabinoid receptors was determined using membrane preparations of human embryonic kidney (HEK) cells in which the human CB1 receptor is transiently transfected using a Semliki Forest Virus system in conjunction with [3H]-CP-55,940 as radioligand. […] Radioactivity on the filter was measured by scintillation counting. […]
Measurement kind: inhibition at 10 µM (%)

[1] C[C@H](Oc1ncc(NC(=O)c2cccnc2)cc1-c1ccc(Cl)cc1)C(F)(F)F
[2] O=C(Nc1cnc(OCC(F)(F)F)c(-c2ccc(Cl)cc2)c1)c1ccnc(O)c1
Which numeric inhibition at 10 µM is bigger, that of 1 or that of 2 ? // caller expects the label of the chosen entry
1
(1: 31%, 2: 21%)

###

Measured on: human CB2 receptor (Homo sapiens)
Construct: expressed in transfected cells; host or cells: human embryonic kidney (HEK) cells, Semliki Forest Virus system, membrane preparations
Sequence (P34972 whole entry): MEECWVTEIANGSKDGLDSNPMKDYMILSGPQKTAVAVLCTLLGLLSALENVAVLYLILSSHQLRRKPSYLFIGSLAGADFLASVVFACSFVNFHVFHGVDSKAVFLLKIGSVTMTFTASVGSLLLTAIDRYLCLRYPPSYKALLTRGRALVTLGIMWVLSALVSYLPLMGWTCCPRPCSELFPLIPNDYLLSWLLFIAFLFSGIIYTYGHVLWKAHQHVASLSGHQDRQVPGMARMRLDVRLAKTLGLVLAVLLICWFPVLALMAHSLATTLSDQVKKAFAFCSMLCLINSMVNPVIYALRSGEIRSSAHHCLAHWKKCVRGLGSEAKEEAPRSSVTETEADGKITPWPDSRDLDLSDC
Experimental protocol: CB2 receptor affinity ([3H]-CP-55,940 displacement, HEK cell membranes)
Assay type: binding
Protocol conditions: displacement of radioligand [3H]-CP-55,940
Measurement kind: inhibition at 10 µM (%)

[a] Cc1cc(-c2cc(NC(=O)c3cn(C)nc3C)cnc2OCC(F)(F)F)ccc1Cl
[b] COCCOc1ncc(NC(=O)c2ccccc2)cc1-c1ccc(Cl)c(C)c1
[c] CC(=O)Nc1cnc(OCC2CC2)c(-c2ccc(Cl)cc2)c1
[d] O=C(Nc1cnc(OC2CCC2)c(-c2ccc(Cl)cc2)n1)c1cccnc1
[e] Cc1cnccc1C(=O)Nc1cnc(OCC(F)(F)F)c(-c2ccc(Cl)cc2)c1
Sort ascending by inhibition at 10 µM: all records listed above. Reply format: the labels, ordered as requested.
a, d, e, c, b

###

Measured on: human CB1 receptor (Homo sapiens, UniProt P21554)
Construct: expressed in transfected cells; host or cells: human embryonic kidney (HEK) cells, Semliki Forest Virus system, membrane preparations
Sequence (P21554 whole entry): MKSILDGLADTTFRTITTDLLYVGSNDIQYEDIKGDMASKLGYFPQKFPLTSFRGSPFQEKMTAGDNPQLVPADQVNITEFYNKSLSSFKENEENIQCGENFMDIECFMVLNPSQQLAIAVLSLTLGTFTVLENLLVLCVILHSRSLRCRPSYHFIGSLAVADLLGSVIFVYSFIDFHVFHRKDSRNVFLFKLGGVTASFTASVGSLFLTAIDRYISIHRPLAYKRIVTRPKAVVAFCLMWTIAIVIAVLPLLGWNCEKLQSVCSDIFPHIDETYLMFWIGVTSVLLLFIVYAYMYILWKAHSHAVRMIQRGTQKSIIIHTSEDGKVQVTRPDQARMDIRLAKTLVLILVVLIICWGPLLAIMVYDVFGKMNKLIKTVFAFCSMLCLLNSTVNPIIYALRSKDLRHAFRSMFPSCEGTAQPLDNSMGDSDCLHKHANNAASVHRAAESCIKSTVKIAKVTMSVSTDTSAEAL
Experimental protocol: CB1 receptor affinity ([3H]-CP-55,940 displacement, HEK cell membranes)
Format: binding
Protocol conditions: displacement of radioligand [3H]-CP-55,940
Measurement kind: inhibition at 10 µM (%)

Examples with their reported inhibition at 10 µM follow.
INSERT INTO measurements (molecule, measured) VALUES
  ('O=C(Nc1cnc(OCC(F)(F)F)c(-c2ccc(Cl)c(F)c2)c1)c1cncnc1', 21),
  ('CNC(=O)c1ccc(C(=O)Nc2cnc(OCC(F)(F)F)c(-c3ccc(Cl)cc3)c2)cn1', 23),
  ('CCc1ccc(-c2cc(NC(=O)c3cccnn3)cnc2OCC(F)(F)F)cc1', 19);

[A] O=C(Nc1cnc(OC2CCC2)c(-c2ccc(Cl)cc2)n1)c1cncnc1
[B] Cc1ccc(-c2cc(NC(=O)c3cccnc3)cnc2OCC(F)(F)F)cc1C
I would appreciate it if you could say which entry, A or B , has the lower inhibition at 10 µM value. Record your answer as the label of the chosen record.
B

###

System: ABCA1 protein
Experimental protocol: Detection of upregulation of ABCA1 protein in cells (ApoA-I binding, high content image analysis)
Type: cell-based
Protocol conditions: ABCA1 protein increasing efficacy; THP-1 macrophage cells
Protocol: The ability of compounds of the invention to increase the level of ABCA1 protein is determined in replicate cultures of THP-1 macrophage cells in 96-well microplates. […] Fixed stained cells are washed and kept in PBS at 4° C. and can be read immediately until one month after preparation. […]
Measurement kind: EC50 (nM)
# output: bare number, implied unit nM

These recorded examples may help you get a feel for the data.
INSERT INTO results (compound, measurement_kind, measured) VALUES
  ('O=C(Nc1cnc(OCC(F)(F)F)c(-c2ccc(Cl)cc2)c1)c1cccnn1 [Example 17]', 'EC50', 2310),
  ('O=C(Nc1cnc(OC2CCC2)c(-c2ccc(Cl)cc2)n1)c1cccnc1 [Example 50]', 'EC50', 1500),
  ('O=C(Nc1cnc(OCC2CC2)c(-c2ccc(Cl)cc2)c1)c1cccnc1 [Example 10]', 'EC50', 6510);

Please look at the following compound next.
# return EC50 for O=C(Nc1cnc(OCC(F)(F)F)c(-c2ccc(F)c(Cl)c2)c1)c1cccnc1 [Example 45] , test system: ABCA1 protein
1030
